biological target: rTRPV1 T550S (Rattus norvegicus, UniProt O35433, T550S); assay: biochemical
Sequence (O35433 whole entry T550S): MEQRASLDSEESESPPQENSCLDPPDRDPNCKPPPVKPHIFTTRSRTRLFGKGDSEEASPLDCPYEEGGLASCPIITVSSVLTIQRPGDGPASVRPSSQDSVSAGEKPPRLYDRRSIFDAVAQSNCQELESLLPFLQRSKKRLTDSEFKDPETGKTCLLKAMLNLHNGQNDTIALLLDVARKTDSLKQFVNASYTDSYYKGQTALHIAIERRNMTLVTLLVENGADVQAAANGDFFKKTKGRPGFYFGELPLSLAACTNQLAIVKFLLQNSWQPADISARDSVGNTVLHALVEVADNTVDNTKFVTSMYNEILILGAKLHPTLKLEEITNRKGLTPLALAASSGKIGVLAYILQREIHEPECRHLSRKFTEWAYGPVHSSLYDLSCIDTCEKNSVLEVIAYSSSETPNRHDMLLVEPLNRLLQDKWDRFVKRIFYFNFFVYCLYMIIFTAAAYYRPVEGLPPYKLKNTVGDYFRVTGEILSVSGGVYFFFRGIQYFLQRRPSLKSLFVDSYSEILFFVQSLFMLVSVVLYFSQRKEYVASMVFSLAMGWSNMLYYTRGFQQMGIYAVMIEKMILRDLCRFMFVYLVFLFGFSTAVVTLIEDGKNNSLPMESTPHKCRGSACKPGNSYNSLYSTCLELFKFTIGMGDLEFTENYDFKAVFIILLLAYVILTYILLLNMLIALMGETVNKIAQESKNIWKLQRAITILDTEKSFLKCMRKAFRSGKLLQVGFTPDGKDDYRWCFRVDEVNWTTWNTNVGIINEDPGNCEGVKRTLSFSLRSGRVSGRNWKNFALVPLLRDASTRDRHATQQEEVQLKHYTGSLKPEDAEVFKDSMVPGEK
METRIC: pKd
# pKd: negative log10 of molar concentration; output just the value

Value wanted: pKd (rTRPV1 T550S (Rattus norvegicus, UniProt O35433, T550S)) of entry C=C(C)[C@]12C[C@@H](C)[C@@]34O[C@](Cc5ccccc5)(O[C@@H]1[C@@H]3C=C(COC(=O)Cc1ccc(O)c(OC)c1)C[C@]1(O)C(=O)C(C)=C[C@@H]41)O2 [RTX, resiniferatoxin] 9.63

----------
target: rTRPV1 WT (Rattus norvegicus)
Sequence (O35433 whole entry): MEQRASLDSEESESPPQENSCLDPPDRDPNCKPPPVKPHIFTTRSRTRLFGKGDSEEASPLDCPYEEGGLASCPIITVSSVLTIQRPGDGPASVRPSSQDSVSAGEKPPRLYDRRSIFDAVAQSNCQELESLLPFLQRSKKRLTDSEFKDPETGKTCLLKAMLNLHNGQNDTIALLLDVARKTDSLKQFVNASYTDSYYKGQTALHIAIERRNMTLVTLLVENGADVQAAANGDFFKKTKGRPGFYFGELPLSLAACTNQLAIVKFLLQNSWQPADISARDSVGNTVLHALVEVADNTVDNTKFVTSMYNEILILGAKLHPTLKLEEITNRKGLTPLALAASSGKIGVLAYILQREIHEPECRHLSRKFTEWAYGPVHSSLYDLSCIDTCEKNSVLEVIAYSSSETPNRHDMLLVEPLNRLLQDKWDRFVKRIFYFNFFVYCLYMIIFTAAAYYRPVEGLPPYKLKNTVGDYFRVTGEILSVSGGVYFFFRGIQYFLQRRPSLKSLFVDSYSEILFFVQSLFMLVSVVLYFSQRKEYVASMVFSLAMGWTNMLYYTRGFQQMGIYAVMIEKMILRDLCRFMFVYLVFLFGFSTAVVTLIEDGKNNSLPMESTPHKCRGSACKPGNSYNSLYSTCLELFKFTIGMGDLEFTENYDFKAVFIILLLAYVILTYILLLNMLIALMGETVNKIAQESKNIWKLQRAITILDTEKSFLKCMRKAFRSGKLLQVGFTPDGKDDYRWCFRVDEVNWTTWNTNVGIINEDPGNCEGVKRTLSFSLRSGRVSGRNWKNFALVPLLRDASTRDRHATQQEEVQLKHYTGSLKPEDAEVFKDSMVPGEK
METRIC: Kd (nM)
Note: unit nM is implicit; provide only the numeric part.

Query the reported Kd for rTRPV1 WT (Rattus norvegicus); item: C=C(C)[C@]12C[C@@H](C)[C@@]34O[C@](Cc5ccccc5)(O[C@@H]1[C@@H]3C=C(COC(=O)Cc1ccc(O)c(OC)c1)C[C@]1(O)C(=O)C(C)=C[C@@H]41)O2 [RTX, resiniferatoxin] 0.203

----------
target: rTRPV1 T550I (Rattus norvegicus, UniProt O35433, T550I); assay: biochemical
Sequence (O35433 whole entry T550I): as the sequence (O35433 whole entry) above, with T550I counted along it
METRIC: pKd
Recall that pKd is obtained by taking minus log10 of the concentration measured in molar.

Look up pKd for this molecule: "C=C(C)[C@]12C[C@@H](C)[C@@]34O[C@](Cc5ccccc5)(O[C@@H]1[C@@H]3C=C(COC(=O)Cc1ccc(O)c(OC)c1)C[C@]1(O)C(=O)C(C)=C[C@@H]41)O2" 8.38

----------
molecular target: rTRPV1 Y511F (Rattus norvegicus, UniProt O35433, Y511F); experiment: biochemical
METRIC: Kd (nM)
Response body: numeric value in nM, unit text excluded.

Sample "C=C(C)[C@]12C[C@@H](C)[C@@]34O[C@](Cc5ccccc5)(O[C@@H]1[C@@H]3C=C(COC(=O)Cc1ccc(O)c(OC)c1)C[C@]1(O)C(=O)C(C)=C[C@@H]41)O2" — what was its Kd? 0.79
